For each entry below, report its Ki value.
target: aristolochene synthase from Penicillium roqueforti (AS) (Penicillium roqueforti, UniProt Q03471); construct: made in house; assay: Inhibition of aristolochene synthase, radiolabelled FDP assay; format: biochemical; conditions: K i (μM), absence of PPi
Sequence (Q03471 whole entry): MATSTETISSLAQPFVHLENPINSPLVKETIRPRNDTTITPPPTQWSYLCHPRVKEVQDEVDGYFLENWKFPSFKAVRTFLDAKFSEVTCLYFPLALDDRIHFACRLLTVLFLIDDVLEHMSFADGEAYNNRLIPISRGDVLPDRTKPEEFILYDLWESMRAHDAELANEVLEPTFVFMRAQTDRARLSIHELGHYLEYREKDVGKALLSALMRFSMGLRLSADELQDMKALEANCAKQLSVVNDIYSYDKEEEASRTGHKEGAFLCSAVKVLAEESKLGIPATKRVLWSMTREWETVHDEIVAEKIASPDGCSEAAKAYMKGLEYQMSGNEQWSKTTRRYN
Answers are plain numbers, in µM.

CC(C)=CCCN(C)[C@H]1CC=C(C)CC1 [(R)-11]	472

Requested field: Ki. Item: CC(C)=CCCN(C)[C@@H]1CC=C(C)CC1 [(S)-11]
295

----------
target: amorpha-4,11-diene synthase (ADS) (Artemisia annua); construct: made in house; assay: Inhibition of amorpha-4,11-diene synthase, radiolabelled FDP assay; format: biochemical; settings: +250 μM PPi, read-out: K i (μM) (+250 μM PPi)
Sequence (Q9AR04 whole entry): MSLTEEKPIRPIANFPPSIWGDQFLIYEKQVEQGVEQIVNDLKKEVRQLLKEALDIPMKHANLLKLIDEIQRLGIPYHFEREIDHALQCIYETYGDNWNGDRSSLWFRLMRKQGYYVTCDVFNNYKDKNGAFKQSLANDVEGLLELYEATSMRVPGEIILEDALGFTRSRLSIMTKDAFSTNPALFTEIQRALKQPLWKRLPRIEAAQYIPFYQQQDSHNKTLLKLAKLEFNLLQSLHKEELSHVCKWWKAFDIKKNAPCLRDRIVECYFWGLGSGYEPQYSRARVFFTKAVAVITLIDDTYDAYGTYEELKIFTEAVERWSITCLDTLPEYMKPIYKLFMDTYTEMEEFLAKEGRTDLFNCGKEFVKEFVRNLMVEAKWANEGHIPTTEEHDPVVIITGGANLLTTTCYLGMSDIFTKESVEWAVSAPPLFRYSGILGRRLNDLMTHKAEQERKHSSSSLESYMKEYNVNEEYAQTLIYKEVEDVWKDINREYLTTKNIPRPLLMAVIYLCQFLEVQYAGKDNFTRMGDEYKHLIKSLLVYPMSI
Readout type: Ki (µM)
Numbers only, in µM.

CC(C)=CCCN(C)[C@@H]1CC=C(C)CC1 [(S)-11]	1.5

Now for the compound whose Ki we want.
Give the reported Ki for CC(C)=CCCN(C)[C@H]1CC=C(C)CC1 [(R)-11] (system: amorpha-4,11-diene synthase (ADS) (Artemisia annua)).
3.7

Attribution: paper PMC6369673
